Molecular target: UniProtKB P43004
Test: Echo-MS assay, uptake of labeled glutamic acid in dox-induced HEK293–JumpIn–SLC1A2 (EAAT2) cells
Assay type: cell-based
Design: expressed in transfected cells; host or cells: Jump In T-REx HEK293
pIC50: −log10 of the molar value.
observed-property: pIC50

Request: Item under review: C=C(C)[C@H]1CN[C@H](C(=O)O)[C@H]1CC(=O)O [Kainic acid] . Reported pIC50?
Response: < 4.52

* * *

Biological target: SLC1A1 (Homo sapiens)
Sequence (P43005 1-524): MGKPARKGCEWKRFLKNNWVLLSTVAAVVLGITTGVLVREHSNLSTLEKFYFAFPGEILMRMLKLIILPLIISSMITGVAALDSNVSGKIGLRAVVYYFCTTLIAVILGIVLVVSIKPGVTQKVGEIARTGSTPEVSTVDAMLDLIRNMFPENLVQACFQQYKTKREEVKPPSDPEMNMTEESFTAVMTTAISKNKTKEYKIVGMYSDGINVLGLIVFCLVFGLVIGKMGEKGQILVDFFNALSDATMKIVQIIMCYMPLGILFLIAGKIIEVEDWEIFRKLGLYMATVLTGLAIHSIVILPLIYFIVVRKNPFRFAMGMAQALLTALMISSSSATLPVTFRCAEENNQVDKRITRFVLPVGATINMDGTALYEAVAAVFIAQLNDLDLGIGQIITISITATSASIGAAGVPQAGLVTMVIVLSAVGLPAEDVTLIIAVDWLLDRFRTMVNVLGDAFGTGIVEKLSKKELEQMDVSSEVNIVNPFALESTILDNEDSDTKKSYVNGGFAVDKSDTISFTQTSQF
Experiment: Echo-MS assay, uptake of labeled glutamic acid in dox-induced HEK293–JumpIn–SLC1A1 (EAAT3) cells
Format: cell-based
Design: expressed in transfected cells; host or cells: Jump In T-REx HEK293
Settings: target SLC1A1, assay EchoMS; read-out: pIC50 (act) (converted)
observed-property: IC50

# annotated cases, reported IC50 shown
Request: Fill in the recorded IC50 for this compound, with SLC1A1 (Homo sapiens) as test system: CC1C(C#N)=C(N)OC2=C1C(=O)CC(c1cccc3ccccc13)C2 (stereo not drawn) [UCPH-102]
Response: > 10 µM

Request: And for N[C@@H](CC(=O)Nc1ccc(Oc2cc(F)c(F)cc2Br)cc1)C(=O)O [WAY-213613] ?
Response: 3.28 µM

Request: And for NC(C(=O)O)C(OCc1ccccc1)C(=O)O (stereo not drawn) [Threo-beta-benzyloxyaspartic acid, Threo-beta-Benzyloxyaspartic acid] ?
Response: > 10 µM

Request: And for N#Cc1ccc(Nc2cnccc2SCc2ccccc2C(=O)O)c2ccccc12 [KPH2f] ?
Response: 0.894 µM

---
Request: Fill in the recorded IC50 for this compound, with SLC1A1 (Homo sapiens) as test system: Cc1ccsc1C(=CCCN1CCC[C@@H](C(=O)O)C1)c1sccc1C [Tiagabine]
Response: > 30 µM

Request: And for COc1ccc(C2C(C#N)=C(N)OC3=C2C(=O)CC(c2cccc4ccccc24)C3)cc1 (stereo not drawn) [UCPH-101] ?
Response: > 10 µM

Request: And for COCCOc1cc(CC2CCN(CCc3ccc4c(c3)C(=O)CCO4)CC2)ccc1Br [DSP-1053] ?
Response: > 30 µM

Request: And for CN1C2CCC1CC(OC(c1ccccc1)c1ccccc1)C2 (stereo not drawn) [Benzotropine] ?
Response: > 30 µM

Request: And for CNCCCN1c2ccccc2CCc2ccccc21 [Desipramine] ?
Response: > 30 µM

Cited source for all entries: paper PMC11267547
